Record form. Attribute: EC50. Fill in for each entry.
- Tested on: HUVEC
- Procedure Details: cells
- Condition Context: Homo sapiens, 3 h
- Description: Antiangiogenic activity in HUVEC assessed as inhibition of VEGF-induced cell proliferation by [3H]thymidine incorporation assay
Answers are plain numbers, in nM.

Solved cases (3 shown):
1. COC(=O)c1ccc2c(c1)NC(=O)/C2=C(\Nc1ccc(NC(=O)CN2CCN(C)CC2)cc1)c1ccccc1; 83
2. COC(=O)c1ccc2c(c1)NC(=O)/C2=C(\Nc1ccc(N(CCN(C)C)C(C)=O)cc1)c1ccccc1; 15
3. COC(=O)c1ccc2c(c1)NC(=O)/C2=C(\Nc1ccc(N(C)C(=O)Cn2ccnc2)cc1)c1ccccc1; 52

Report EC50 for Nc1ccc2c(c1)NC(=O)/C2=C(\Nc1ccc(CN2CCCCC2)cc1)c1ccccc1
414
